test: in vivo; set-up: species or system dog; details: beagle, dog, in vivo; female dogs (n = 2), PO 15 mg/kg; read-out: Plasma AUCoral 0-last

| compound | AUC / µg·h/mL |
| --- | --- |
| [2H]C([2H])([2H])C1(C([2H])([2H])[2H])NC(=O)N(c2ccc(F)c(C(C)(F)F)c2)C1=O [Compound IE] | 7030 |

* * *

assay: Pharmacokinetics in male Sprague Dawley rats; assay type: in vivo, rat; settings: male, Sprague Dawley, rat, in vivo, po, 1 mg/kg, rats, PO 1 mg/kg, individual rats; read-out: Plasma AUCoral

| smiles_representation | AUC, ng·h/mL |
| --- | --- |
| CC1(C)NC(=O)N(c2ccc(F)c(C(C)(F)F)c2)C1=O | 23300 |

* * *

system: S. mansoni; test: Antischistosomal screen in S. mansoni-infected mice; type: in vivo, Schistosoma mansoni; conditions: Schistosoma mansoni; juvenile stage, single oral dose, mouse model; read-out: S. mansoni ED50, juvenile

| compound | study_target | ED50 [mg/kg] |
| --- | --- | --- |
| CC1(C(F)F)NC(=O)N(c2ccc(F)c(C(F)(F)F)c2)C1=O (stereo not shown) [ID] | S. mansoni | 88 |
| [2H]C([2H])([2H])C1(C([2H])([2H])[2H])NC(=O)N(c2ccc(F)c(C(F)(F)F)c2)C1=O [IB] | S. mansoni | 73 |
| [2H]C([2H])([2H])C1(C([2H])([2H])[2H])NC(=O)N(c2ccc(F)c(C(C)(F)F)c2)C1=O [Compound IE] | S. mansoni | 16 |
| CC1(C)NC(=O)N(c2ccc(F)c(C(C)(F)F)c2)C1=O [Compound IC] | S. mansoni | 23 |

* * *

experiment: Pharmacokinetics in male Sprague Dawley rats; type: in vivo, rat; conditions: male, Sprague Dawley, rat, in vivo, iv, 1 mg/kg, rats, IV 1 mg/kg, individual rats; read-out: Plasma Vss

| smiles_representation | Vd, L/kg |
| --- | --- |
| CC1(C)NC(=O)N(c2ccc(F)c(C(C)(F)F)c2)C1=O | 1.14 |

* * *

biological target: CYP 2D6 (Homo sapiens (Human), UniProt P10635); assay: CYP inhibition in human liver microsomes, 2D6
Sequence (P10635 whole entry): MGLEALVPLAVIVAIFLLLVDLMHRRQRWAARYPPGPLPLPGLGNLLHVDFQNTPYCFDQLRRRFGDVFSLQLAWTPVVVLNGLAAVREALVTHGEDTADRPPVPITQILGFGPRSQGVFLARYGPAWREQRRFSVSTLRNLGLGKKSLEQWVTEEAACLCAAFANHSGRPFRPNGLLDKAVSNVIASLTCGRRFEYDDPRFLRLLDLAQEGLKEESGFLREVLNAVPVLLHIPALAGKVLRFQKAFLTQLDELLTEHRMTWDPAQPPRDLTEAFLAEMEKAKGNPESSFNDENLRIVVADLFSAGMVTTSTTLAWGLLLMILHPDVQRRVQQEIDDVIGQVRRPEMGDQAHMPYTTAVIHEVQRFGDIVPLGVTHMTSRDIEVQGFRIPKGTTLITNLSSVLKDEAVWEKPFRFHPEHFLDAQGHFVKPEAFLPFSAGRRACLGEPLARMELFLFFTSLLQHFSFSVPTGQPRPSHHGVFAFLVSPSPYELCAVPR

| smiles_representation | IC50 |
| --- | --- |
| CC1(C)NC(=O)N(c2ccc(F)c(C(C)(F)F)c2)C1=O | > 20 µM |

* * *

molecular target: CYP 2D6 (Homo sapiens (Human)); assay: CYP inhibition in human liver microsomes, 2D6; details: read-out: CYP inhibition IC50; 2D6
outcome_measure: IC50

| compound | observed_result |
| --- | --- |
| [2H]C([2H])([2H])C1(C([2H])([2H])[2H])NC(=O)N(c2ccc(F)c(C(C)(F)F)c2)C1=O [Compound IE] | > 20 µM |

* * *

experiment: Pharmacokinetics in male Sprague Dawley rats; assay type: in vivo, rat; details: male, Sprague Dawley, rat, in vivo, iv, 1 mg/kg, rats, IV 1 mg/kg, mean (n = 3); read-out: Plasma CL
outcome_measure: clearance (L/h/kg)

| compound | observed_result |
| --- | --- |
| CC1(C)NC(=O)N(c2ccc(F)c(C(C)(F)F)c2)C1=O [Compound IC] | 0.0495 |

* * *

assay: Mouse exposure / pharmacokinetic studies; format: in vivo, mice; settings: male, Swiss outbred, mouse, in vivo, iv, 1 mg/kg, mice, IV, mean dose 1.0 mg/kg; read-out: Apparent t1/2 (converted)

| smiles_representation | half-life / h |
| --- | --- |
| [2H]C([2H])([2H])C1(C([2H])([2H])[2H])NC(=O)N(c2ccc(F)c(C(C)(F)F)c2)C1=O | 38 |

* * *

test: Pharmacokinetics in male Sprague Dawley rats; format: in vivo, rat; conditions: male, Sprague Dawley, rat, in vivo, iv, 1 mg/kg, rats, IV 1 mg/kg, mean; read-out: Blood Vss

| smiles_representation | Vd |
| --- | --- |
| CC1(C)NC(=O)N(c2ccc(F)c(C(C)(F)F)c2)C1=O | 1.04 L/kg |

* * *

experiment: Pharmacokinetics in male Sprague Dawley rats; type: in vivo, rat; conditions: male, Sprague Dawley, rat, in vivo; rats, PO 0.9 mg/kg, mean (n = 3); read-out: Apparent t1/2 (converted)
outcome_measure: half-life

| compound | observed_result |
| --- | --- |
| [2H]C([2H])([2H])C1(C([2H])([2H])[2H])NC(=O)N(c2ccc(F)c(C(C)(F)F)c2)C1=O [Compound IE] | 39 h |

* * *

Test: Kinetic solubility (nephelometry)
Type: physicochemical
Details: aqueous buffer, kinetic from dmso stock; kinetic solubility, pH 6.5 phosphate buffer; read-out: Sol6.5
Method: Kinetic Solubility. Compounds in DMSO (10 mg/mL) were diluted into either pH 6.5 phosphate buffer or 0.01 M HCl (approx. pH 2.0) with the final DMSO concentration being 1%. Samples were then analysed via nephelometry to determine a solubility range (Bevan and Lloyd, 2000).
outcome_measure: solubility kinetic

| molecule | observed_result |
| --- | --- |
| CC1(C)NC(=O)N(c2ccc(F)c(C(C)(F)F)c2)C1=O [Compound IC] | > 100 µg/mL |

* * *

Assay: in vivo
Design: species or system dog
Conditions: male, beagle, dog, in vivo, iv, 1 mg/kg, male dogs, iv 1 mg/kg; read-out: mean elimination phase half-life (t1/2) (converted)
Description: The same 2M/2F dogs were used following 2-week washout periods for each dose level in escalation order. This was a survival study and animals were not sacrificed. The following parameters were evaluated: mortality/morbidity, clinical observations, body weights, plasma drug levels, pharmacokinetics and clinical pathology (hematology, coagulation and serum chemistry).

| smiles_representation | half-life [h] |
| --- | --- |
| [2H]C([2H])([2H])C1(C([2H])([2H])[2H])NC(=O)N(c2ccc(F)c(C(C)(F)F)c2)C1=O | 167 |

* * *

test: in vivo; set-up: species or system dog; details: both sexes, dog, in vivo; male and female Beagle dogs, single iv administration; read-out: no observed adverse effect level (NOAEL)
outcome_measure: NOAEL

| smiles_representation | observed_result |
| --- | --- |
| [2H]C([2H])([2H])C1(C([2H])([2H])[2H])NC(=O)N(c2ccc(F)c(C(C)(F)F)c2)C1=O | ≥ 1 mg/kg |

* * *

target: CYP 1A2 (Homo sapiens (Human), UniProt P05177); assay: CYP inhibition in human liver microsomes, 1A2; assay type: in vitro ADME; settings: 1A2; read-out: CYP inhibition IC50
Sequence (P05177 whole entry): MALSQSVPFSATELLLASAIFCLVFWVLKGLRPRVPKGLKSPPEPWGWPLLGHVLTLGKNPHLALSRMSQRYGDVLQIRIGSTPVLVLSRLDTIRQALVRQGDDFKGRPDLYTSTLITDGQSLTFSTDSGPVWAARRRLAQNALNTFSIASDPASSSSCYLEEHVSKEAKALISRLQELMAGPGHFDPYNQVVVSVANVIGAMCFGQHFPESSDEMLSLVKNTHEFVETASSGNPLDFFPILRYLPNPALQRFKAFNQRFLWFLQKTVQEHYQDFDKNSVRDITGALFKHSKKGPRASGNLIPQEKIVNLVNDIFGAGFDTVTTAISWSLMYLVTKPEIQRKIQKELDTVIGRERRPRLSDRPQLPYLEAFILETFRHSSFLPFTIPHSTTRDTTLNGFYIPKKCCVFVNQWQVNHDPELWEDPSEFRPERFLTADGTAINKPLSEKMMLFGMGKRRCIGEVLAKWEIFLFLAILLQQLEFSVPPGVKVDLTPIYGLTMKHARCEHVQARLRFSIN
pIC50: −log10 of the molar value.

| molecule | pIC50 |
| --- | --- |
| [2H]C([2H])([2H])C1(C([2H])([2H])[2H])NC(=O)N(c2ccc(F)c(C(C)(F)F)c2)C1=O [Compound IE] | < 4.70 |

* * *

target: CYP 2C9 (Homo sapiens (Human), UniProt P11712); assay: CYP inhibition in human liver microsomes, 2C9; details: read-out: CYP inhibition IC50; 2C9
Sequence (P11712 whole entry): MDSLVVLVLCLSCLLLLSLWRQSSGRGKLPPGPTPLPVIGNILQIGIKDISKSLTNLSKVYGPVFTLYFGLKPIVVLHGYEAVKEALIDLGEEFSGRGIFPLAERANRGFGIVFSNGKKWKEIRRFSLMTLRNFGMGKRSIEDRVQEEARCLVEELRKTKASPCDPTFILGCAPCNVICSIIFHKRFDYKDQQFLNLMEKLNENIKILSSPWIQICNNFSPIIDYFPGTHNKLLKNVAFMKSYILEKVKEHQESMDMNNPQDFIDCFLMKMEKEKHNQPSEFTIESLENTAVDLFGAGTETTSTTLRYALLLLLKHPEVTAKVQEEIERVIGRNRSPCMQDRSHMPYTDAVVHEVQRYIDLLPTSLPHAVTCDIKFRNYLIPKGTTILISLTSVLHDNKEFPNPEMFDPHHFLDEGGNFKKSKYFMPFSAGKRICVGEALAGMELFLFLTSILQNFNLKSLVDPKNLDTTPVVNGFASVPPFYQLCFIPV
pIC50: −log10 of the molar value.

| smiles_representation | pIC50 |
| --- | --- |
| [2H]C([2H])([2H])C1(C([2H])([2H])[2H])NC(=O)N(c2ccc(F)c(C(C)(F)F)c2)C1=O | < 4.70 |

* * *

target: CYP 3A4 (Homo sapiens (Human)); experiment: CYP inhibition in human liver microsomes, 3A4
Sequence (P08684 whole entry): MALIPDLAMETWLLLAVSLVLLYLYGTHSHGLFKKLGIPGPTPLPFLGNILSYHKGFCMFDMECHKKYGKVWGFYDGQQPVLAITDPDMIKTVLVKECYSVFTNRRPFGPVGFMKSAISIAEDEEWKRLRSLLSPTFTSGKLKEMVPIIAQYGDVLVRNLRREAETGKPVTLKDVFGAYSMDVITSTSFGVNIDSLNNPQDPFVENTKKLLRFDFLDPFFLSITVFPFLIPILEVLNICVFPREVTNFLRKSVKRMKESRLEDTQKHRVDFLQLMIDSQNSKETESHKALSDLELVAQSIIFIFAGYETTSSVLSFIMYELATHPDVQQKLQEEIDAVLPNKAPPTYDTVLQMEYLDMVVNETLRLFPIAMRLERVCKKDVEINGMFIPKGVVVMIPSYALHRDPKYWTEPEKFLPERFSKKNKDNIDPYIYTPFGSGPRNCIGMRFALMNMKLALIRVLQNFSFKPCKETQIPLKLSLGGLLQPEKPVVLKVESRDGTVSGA

| smiles_representation | IC50 |
| --- | --- |
| CC1(C)NC(=O)N(c2ccc(F)c(C(C)(F)F)c2)C1=O | > 20 µM |

* * *

assay: in vivo; design: species or system dog; conditions: male, beagle, dog, in vivo, iv, 1 mg/kg, male dogs (n = 2), IV 1 mg/kg; read-out: Apparent t1/2 (converted)

| smiles_representation | measurement_units | half-life |
| --- | --- | --- |
| [2H]C([2H])([2H])C1(C([2H])([2H])[2H])NC(=O)N(c2ccc(F)c(C(C)(F)F)c2)C1=O | h | 155 |

* * *

experiment: Pharmacokinetics in male Sprague Dawley rats; type: in vivo, rat; conditions: male, Sprague Dawley, rat, in vivo, iv, 1 mg/kg, rats, IV 1 mg/kg, mean; read-out: Blood CL

| smiles_representation | measurement_units | clearance |
| --- | --- | --- |
| CC1(C)NC(=O)N(c2ccc(F)c(C(C)(F)F)c2)C1=O | mL/min/kg | 0.687 |

* * *

assay: In vitro metabolic stability, human liver microsomes; format: in vitro ADME; conditions: human liver microsomes; read-out: h CLint

| compound | microsomal CLint |
| --- | --- |
| CC1(C(F)(F)F)NC(=O)N(c2ccc(F)c(C(F)(F)F)c2)C1=O (stereo not drawn) [IA] | < 7 µL/min/mg |
| [2H]C([2H])([2H])C1(C([2H])([2H])[2H])NC(=O)N(c2ccc(F)c(C(C)(F)F)c2)C1=O [Compound IE] | < 7 µL/min/mg |
| CC1(C)NC(=O)N(c2ccc(F)c(C(C)(F)F)c2)C1=O [Compound IC] | 7 µL/min/mg |
